Measured target: GST-hLGK1 (human liver type GK) (Homo sapiens, UniProt P35557)
Construct: made in house; host or cells: Escherichia coli BL21 (pGEX6P-2/hLGK1)
Sequence (P35557 1-464 isoform P35557-3): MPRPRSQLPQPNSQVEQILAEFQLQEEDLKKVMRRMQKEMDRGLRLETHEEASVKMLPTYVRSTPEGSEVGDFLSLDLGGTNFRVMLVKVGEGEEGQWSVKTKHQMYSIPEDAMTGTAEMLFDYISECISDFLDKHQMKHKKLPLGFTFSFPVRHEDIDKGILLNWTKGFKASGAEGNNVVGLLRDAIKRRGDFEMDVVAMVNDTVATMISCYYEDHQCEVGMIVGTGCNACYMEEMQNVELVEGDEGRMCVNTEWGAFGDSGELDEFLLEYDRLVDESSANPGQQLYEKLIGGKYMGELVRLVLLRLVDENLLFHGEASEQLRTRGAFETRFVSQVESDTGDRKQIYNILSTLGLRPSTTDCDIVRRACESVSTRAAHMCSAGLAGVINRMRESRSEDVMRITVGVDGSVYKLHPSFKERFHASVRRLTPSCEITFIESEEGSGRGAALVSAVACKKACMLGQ
Assay text: Determination of GK activity value (fluorescence assay)
Assay type: biochemical
Stated conditions: test compound 10 μmol/L, 5 mmol/L D-glucose, reaction rate as percentage of control without compound
Where a name gives a salt, the structure may show the parent alone.
Observed property: Emax at 10 µM (%)

CCCc1cc(-c2cc3ccccc3s2)c2[nH]nc(Nc3nccs3)c2c1: 231
CCNC(=O)Nc1n[nH]c2ccc(-c3ncccc3Cl)cc12: 202
Cn1ccc(Nc2n[nH]c3c(OCCc4ccccn4)cc(-c4ncccc4Cl)cc23)n1: 200
Clc1cccnc1-c1cc(OCCc2ccccn2)c2[nH]nc(Nc3nccs3)c2c1: 231
Clc1cccnc1-c1ccc2[nH]nc(Nc3ncc(CN4CCOCC4)s3)c2c1: 186
O=S(=O)(c1ccc2[nH]nc(Nc3nccs3)c2c1)N1CCCC1: 156
COC[C@H](C)Oc1cc(OCCc2ccccn2)c2[nH]nc(Nc3nccs3)c2c1 [Example 108, dihydrochloride]: 199

P = CC(C)S(=O)(=O)c1cc(OCCc2ccccn2)c2[nH]nc(Nc3nccs3)c2c1
Q = CCn1nc(Nc2nccs2)c2cc(-c3ncccc3Cl)ccc21
Between the entries labelled P and Q , which has a larger Emax at 10 µM value on record? Choose, then provide that item's label.
P
(P: 211%, Q: 129%)

Cited source for all entries: patent US20110301155A1
